- Tested Target: Peroxisome proliferator-activated receptor gamma (Homo sapiens, UniProt P37231)
- Sequence (P37231 whole entry): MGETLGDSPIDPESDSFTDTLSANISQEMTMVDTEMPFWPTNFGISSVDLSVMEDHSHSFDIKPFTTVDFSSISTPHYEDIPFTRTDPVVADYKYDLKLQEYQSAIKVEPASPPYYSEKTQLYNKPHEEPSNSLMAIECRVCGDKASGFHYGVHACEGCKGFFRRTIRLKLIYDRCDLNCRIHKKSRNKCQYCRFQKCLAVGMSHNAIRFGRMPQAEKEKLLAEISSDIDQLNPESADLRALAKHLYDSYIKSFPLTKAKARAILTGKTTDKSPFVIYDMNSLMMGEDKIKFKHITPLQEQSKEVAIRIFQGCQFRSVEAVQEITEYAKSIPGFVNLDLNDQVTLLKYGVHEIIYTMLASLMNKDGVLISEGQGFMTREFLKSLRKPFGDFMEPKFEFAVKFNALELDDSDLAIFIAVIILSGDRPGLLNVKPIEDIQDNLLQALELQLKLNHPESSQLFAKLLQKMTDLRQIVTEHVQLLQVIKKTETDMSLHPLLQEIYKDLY
- Assay Comment: Agonist activity at PPARgamma (unknown origin)
Property Measured: EC50

Enquiry: Data request, read-out EC50, for `Cc1cc(Cn2ncn(-c3ccc(OC(F)(F)F)cc3)c2=O)cc(Cl)c1OC(C)(C)C(=O)O`
Return: > 5 µM

Enquiry: Data request, read-out EC50, for `Cc1cc(Cn2ncn(-c3ccc(C#N)cc3)c2=O)cc(C)c1OC(C)(C)C(=O)O`
Return: > 5 µM

Enquiry: Data request, read-out EC50, for `Cc1cc(Cn2ncn(-c3ccccc3C(F)(F)F)c2=O)cc(C)c1OC(C)(C)C(=O)O`
Return: 3.79 µM

Enquiry: Data request, read-out EC50, for `CC(C)(Oc1c(F)cc(Cn2ncn(-c3ccc(C(F)(F)F)cc3)c2=O)cc1F)C(=O)O`
Return: > 5 µM

Enquiry: Data request, read-out EC50, for `CCOc1ccc(-n2cnn(Cc3cc(C)c(OC(C)(C)C(=O)O)c(C)c3)c2=O)cc1`
Return: > 5 µM

Measured values drawn from ChEMBL document CHEMBL5042526 for this set.
